target: UniProt:Q6GI75; assay: Inhibition of N-terminal his 6 tagged Staphylococcus aureus Fabi (1 to […] residues) expressed in Escherichia coli BL21 at 10 uM incubated for 30 mins in presence of NADPH by fluorescence based microplate reader analysis relative to control
Sequence (Q6GI75 whole entry): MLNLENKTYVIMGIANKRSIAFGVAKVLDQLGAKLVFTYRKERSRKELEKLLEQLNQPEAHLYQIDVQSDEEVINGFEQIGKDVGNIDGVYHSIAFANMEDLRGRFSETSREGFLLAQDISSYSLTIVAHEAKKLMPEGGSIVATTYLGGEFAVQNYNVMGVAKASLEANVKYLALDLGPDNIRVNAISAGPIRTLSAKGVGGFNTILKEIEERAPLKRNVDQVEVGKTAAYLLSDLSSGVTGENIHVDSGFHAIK
Task for the reader: assign each of the following compounds its reported inhibition.
One number for each entry, in %.

Observe how each entry below is paired with its result.
COMPOUND	inhibition [%]
Cn1c(CCC(=O)NCCNC(=O)Cc2ccccc2)nc2ccccc21	21.4
Cn1c(C2CC(=O)N(c3cccc(Cl)c3)C2)nc2ccccc21 (configuration not stated)	69.6
O=C1CC(c2nc3ccccc3[nH]2)CN1c1cccc(Cl)c1F (configuration not stated)	16.9
Cc1c(Br)cccc1N1CC(c2nc3ccccc3n2C(C)C)CC1=O (configuration not stated)	87
Cn1c(C2CC(=O)N(c3ccc(F)c(F)c3)C2)nc2ccccc21 (configuration not stated)	40.1
Cc1cccc(C(=O)NCCNC(=O)c2nc3ccccc3n2C)c1C	3.7

Here are 8 compounds. What values of inhibition were reported for them?
1. Cc1c(N)cccc1N1CC(c2nc3ccccc3n2C)CC1=O (configuration not stated)
2. Cc1cccc(C(=O)NCCNC(=O)CCc2nc3ccccc3n2C)c1C
3. Cn1c(C(=O)NCCC(=O)NCc2ccccc2)nc2ccccc21
4. Cn1c(C2CC(=O)N(c3cccc(Cl)c3F)C2)nc2ccccc21 (configuration not stated)
5. Cn1c(C2CC(=O)N(c3ccc4ncsc4c3)C2)nc2ccccc21 (configuration not stated)
6. Cn1c(CCC(=O)Nc2ccccc2)nc2ccccc21
7. Cc1cccc(N2CC(c3nc4ccccc4n3C)CC2=O)c1 (configuration not stated)
8. Cn1c(C2CC(=O)N(c3ccc(Br)c(Br)c3)C2)nc2ccccc21 (configuration not stated)

Result string:
[50.2, 25.6, 8.6, 97.9, 43.4, 7.8, 67.7, 45.4]

---

target: UniProtKB Q6GI75; experiment: Inhibition of N-terminal his 6 tagged Staphylococcus aureus Fabi (1 to […] residues) expressed in Escherichia coli BL21 at 10 uM incubated for 30 mins in presence of NADPH by fluorescence based microplate reader analysis relative to control
METRIC_NAME: inhibition (%)
One number for each entry, in %.

Observe how each entry below is paired with its result.
MOLECULE	UNIT_SYMBOL	inhibition
Cn1c(C(=O)Nc2cccc(C(=O)NCc3ccccc3)c2)nc2ccccc21	%	4
Cn1ccc2c(N3CC(c4nc5ccccc5n4C)CC3=O)cccc21 (stereo not drawn)	%	62.1
CCCn1c(C2CC(=O)N(c3cccc(Br)c3C)C2)nc2ccccc21 (stereo not drawn)	%	99.5
Cc1cccc(N2CC(c3nc4ccccc4n3C)CC2=O)c1C (stereo not drawn)	%	95.7
Cn1c(C2CC(=O)N(c3cccc(Br)c3F)C2)nc2ccccc21 (stereo not drawn)	%	95.3
Cc1c(O)cccc1N1CC(c2nc3ccccc3n2C)CC1=O (stereo not drawn)	%	96.9

Here are 4 molecules. What values of inhibition were reported for them?
1. Cc1c(Br)cccc1N1CC(c2nc3cc(F)c(F)cc3n2C)CC1=O (stereo not drawn)
2. Cc1c(Cl)cccc1N1CC(c2nc3ccccc3n2C)CC1=O (stereo not drawn)
3. Cc1cccc(NC(=O)CCNC(=O)c2nc3ccccc3n2C)c1C
4. Cn1c(C2CC(=O)N(c3ccc(Cl)cc3)C2)nc2ccccc21 (stereo not drawn)

Result string:
[66.7, 99.1, 6.6, 35.7]

---

biological target: UniProt Q6GI75; experiment: Inhibition of N-terminal his 6 tagged Staphylococcus aureus Fabi (1 to […] residues) expressed in Escherichia coli BL21 at 10 uM incubated for 30 mins in presence of NADPH by fluorescence based microplate reader analysis relative to control
METRIC_NAME: inhibition

Observe how each entry below is paired with its result.
TEST_SMILES	inhibition
O=C1C=CC(=O)c2ccccc21	> 70%
O=C(N/N=C/c1cc(O)c(O)cc1O)c1cc2ccccc2cc1O	> 70%

Query string: Record request: inhibition value, item CN(C)c1ccc2nc3c(C(=O)O)cc(O)c(O)c3[o+]c2c1
Result string: > 70%
